System: OVCAR-4
Experiment: NCI tumour cell line growth inhibition, 48 h
The source made the active and inactive calls. Cut-off read from the data, not from the text of the source: active = GI50 up to about 1.1 µM and inactive = higher.
Return exactly one item of active, inactive

Record excerpt, results attached:
COMPOUND: CC(C)(C)OC(=O)NC1CC=CCC1NC(=O)OC(C)(C)C (configuration not stated)
TARGET_OR_TEST_SYSTEM: OVCAR-4
CATEGORY_LABEL: inactive

COMPOUND: O=C(/C=C(O)/C(=C/C(=O)c1ccccc1)NN=C(c1ccccc1)c1ccccc1)c1ccccc1
TARGET_OR_TEST_SYSTEM: OVCAR-4
CATEGORY_LABEL: inactive

COMPOUND: Cc1ccc(S(=O)(=O)OC2CC=CC2)cc1
TARGET_OR_TEST_SYSTEM: OVCAR-4
CATEGORY_LABEL: inactive

COMPOUND: Cn1nc(-c2cccc(-c3nn(C)/c(=N\CCO)s3)n2)s/c1=N/CCO
TARGET_OR_TEST_SYSTEM: OVCAR-4
CATEGORY_LABEL: inactive

-- ask Would you mind telling me which call this test gave `COc1ccc(C)c2c1N[C@](C)([C@]1(C)Nc3c(OC)ccc(C)c3C1=O)C2=O` ?
-- reply inactive

-- ask Would you mind telling me which call this test gave O=CN/C=C/c1cc(O)ccc1O [ERBSTATIN] ?
-- reply inactive

-- ask Would you mind telling me which call this test gave `N=C(N)SCCC(=O)CCSC(=N)N` ?
-- reply inactive

====

System: SN12C
Test: NCI tumour cell line growth inhibition, 48 h
Calls of active or inactive are those of the source. No stated cut-off is given here; in the data, active = GI50 up to about 1.1 µM and inactive = higher.
Overview of recorded GI50 for various compounds

Example entries begin here.
COMPOUND: OC1CSCCCSCCSCCCSC1
GI50: > 100 µM (inactive)
--
COMPOUND: CC(=O)/C(=C/NC(=S)c1ccncc1)C(=O)Nc1ccccc1C
GI50: > 100 µM (inactive)
--
COMPOUND: CC[N+]1(C)CCC(O)(/C=C/c2ccc(Cl)c(Cl)c2)C(C(=O)/C=C/c2ccc(Cl)c(Cl)c2)C1 (stereo unspecified)
GI50: 1.88 µM (inactive)
--
COMPOUND: COc1ccc(/C=C2\C[C@H]3[C@@H]4CCC5=C/C(=N/O)CC[C@]5(C)[C@H]4CC[C@]3(C)\C2=N\O)cc1OC
GI50: 12.7 µM (inactive)
--
COMPOUND: COc1ccc(/N=N/c2c(-c3ccccc3)nn(C(=O)CC(=O)Nc3ccccc3Cl)c2-c2ccccc2)cc1
GI50: > 100 µM (inactive)

Item: Cc1cc(O)c2c(c1O)C(=O)C13C(=C(O)C4C(O)C1C1C(O)C3C(O)=C3C(=O)c5c(O)cc(C)c(O)c5C(=O)C341)C2=O (stereo unspecified) | GI50: 0.0471 µM (active)

Item: Cn1c(=O)n2n(c1=O)C1C(=CC2)C2C=CC1n1c(=O)n(C)c(=O)n12 (stereo unspecified) | GI50: > 100 µM (inactive)

Item: `CC(=O)NNc1nc(C)c(C(=O)NNC(=O)C(=O)Nc2c([N+](=O)[O-])ccc(C)c2C)s1` | GI50: > 100 µM (inactive)

Item: `Cc1cc2c(c(C(N)=O)c1C)-c1ccccc1C2=O` | GI50: > 100 µM (inactive)

Item: COc1cc2oc(-c3ccc(O)cc3)c(OC3OC(C)C(O)C(O)C3O)c(=O)c2c(O)c1OC (stereo unspecified) | GI50: > 100 µM (inactive)

Item: Cc1cc(C)c2c(=O)n(CC(O)CN(Cc3ccccc3)CC(O)Cn3sc4nc(C)cc(C)c4c3=O)sc2n1 (stereo unspecified) | GI50: 18.1 µM (inactive)

Item: `O=C(Nc1c(C(F)(F)F)cc(-c2ccccc2)[nH]c1=O)N1CCOCC1` | GI50: > 100 µM (inactive)

Item: `CC(C)(C)OC(=O)NCC(CNC(=O)OC(C)(C)C)C(N)=O` | GI50: > 100 µM (inactive)

Item: `C=C1CCCCCCCCC/C=C/1SCCCSC` | GI50: > 100 µM (inactive)

Item: CCCCCCCCCCCCCCCCCC(=O)OCC(C[As](=O)(O)O)OC(=O)CCCCCCCCCCCCCCCCC (stereo unspecified) | GI50: 50.1 µM (inactive)

Item: `CCOC(=N)CC(=O)c1ccccc1` | GI50: > 100 µM (inactive)

Item: CC(=O)N1NC(c2ccccc2)=NC(=O)C1c1cc(C)c(O)c(C)c1 (stereo unspecified) | GI50: 27.5 µM (inactive)

Item: CC(=O)N1C(c2[nH]c3ccccc3c2Cc2ccccc2)CCN1c1ccccc1 (stereo unspecified) | GI50: > 10 µM (inactive)

Item: `CC(=O)Oc1ccc(C(c2ccc(OC(C)=O)cc2)c2ccccn2)cc1` | GI50: 7.16 µM (inactive)

Item: `COc1ccc(C)c2c1N[C@](C)([C@]1(C)Nc3c(OC)ccc(C)c3C1=O)C2=O` | GI50: > 100 µM (inactive)

====

Test system: Malme-3M
Assay: NCI tumour cell line growth inhibition, 48 h
The source made the active and inactive calls. Cut-off read from the data, not from the text of the source: active = GI50 up to about 1.1 µM and inactive = higher.
Return exactly one item of YES (active), NO (inactive)

-- ask Would you mind telling me which call this test gave `COc1cc(C(N)=O)cc(NC(=O)/C=C/c2ccccc2)c1OC` ?
-- reply NO

-- ask Would you mind telling me which call this test gave `Cc1ccnc2nc(N)ccc12` ?
-- reply NO

-- ask Would you mind telling me which call this test gave `CCN(CC)CCNc1c2ccccc2nc2cccc([N+](=O)[O-])c12` ?
-- reply YES

-- ask Would you mind telling me which call this test gave `CC(C)(C)[C@@H]1NC(=O)CN1C(=O)OCc1ccccc1` ?
-- reply NO

-- ask Would you mind telling me which call this test gave CCOC1OC(CO)C(O)CC1n1ccc(=O)[nH]c1=O (stereo unspecified) ?
-- reply NO

-- ask Would you mind telling me which call this test gave `c1ccc2c(c1)SCCc1cn[nH]c1-2` ?
-- reply NO

-- ask Would you mind telling me which call this test gave `CCOC(=O)C(=O)NC12CC3CC(CC(C3)C1)C2` ?
-- reply NO

-- ask Would you mind telling me which call this test gave `CCC1(CC)C(=O)CC[C@@]2(C)C1=CC[C@H]1[C@@H]3CC[C@H](O)[C@@]3(C)CC[C@@H]12` ?
-- reply NO

-- ask Would you mind telling me which call this test gave O=C1Nc2nc3ccccc3n2N=C2CCCC12 (stereo unspecified) ?
-- reply NO

-- ask Would you mind telling me which call this test gave COc1cc2oc(-c3ccc(O)cc3)c(OC3OC(C)C(O)C(O)C3O)c(=O)c2c(O)c1OC (stereo unspecified) ?
-- reply NO

-- ask Would you mind telling me which call this test gave `COc1ccc(NC(=O)c2cc(OC)cc(OC)c2)cc1` ?
-- reply NO

====

System: NCI/ADR-RES
Test: NCI tumour cell line growth inhibition, 48 h
The source made the active and inactive calls. Rule as the data show it: active = GI50 up to about 1.1 µM and inactive = higher.
Return exactly one item of 1.0 = active, 0.0 = inactive

COMPOUND: O=C(O)c1cc(/C=C/c2ccc(O)c(O)c2)ccc1O
CATEGORY_LABEL: 0.0

COMPOUND: C/C=C(/COC(C)=O)C(=O)OC1C=C(C=O)C(C)(C)C=C1C (stereo not given)
CATEGORY_LABEL: 0.0

-- ask Would you mind telling me which call this test gave `O=[N+]([O-])c1cccc2nc3ccccc3c(NCCCCNc3c4ccccc4nc4cccc([N+](=O)[O-])c34)c12` ?
-- reply 1.0

-- ask Would you mind telling me which call this test gave `Cc1ccc(C(=O)/C=C2\Nc3ccccc3NC2=O)cc1` ?
-- reply 0.0

-- ask Would you mind telling me which call this test gave `Cc1cccc(C)c1NC(=O)Nc1ccc(S(N)(=O)=O)cc1` ?
-- reply 0.0

====

Tested on: LOX IMVI
Test: NCI tumour cell line growth inhibition, 48 h
Calls of active or inactive are those of the source. No stated cut-off is given here; in the data, active = GI50 up to about 1.1 µM and inactive = higher.
Return exactly one item of active, inactive

Record excerpt, results attached:
COMPOUND: CC(=O)N1C(c2[nH]c3ccccc3c2Cc2ccccc2)CCN1c1ccccc1 (stereo not given)
TARGET_OR_TEST_SYSTEM: LOX IMVI
CATEGORY_LABEL: inactive
//
COMPOUND: COc1ccc(/C=C/c2nccc3ccccc23)cc1OC
TARGET_OR_TEST_SYSTEM: LOX IMVI
CATEGORY_LABEL: inactive
//
COMPOUND: CC(C)(C)OC(=O)N1CC(O)O[C@H](c2ccccc2)[C@@H]1c1ccccc1 (stereo not given in full)
TARGET_OR_TEST_SYSTEM: LOX IMVI
CATEGORY_LABEL: inactive
//
COMPOUND: C=CC[C@H]1[C@@H](O[Si](C)(C)C(C)(C)C)[C@H](n2ccc(=O)[nH]c2=O)O[C@@H]1CO[Si](C)(C)C(C)(C)C
TARGET_OR_TEST_SYSTEM: LOX IMVI
CATEGORY_LABEL: inactive
//
COMPOUND: CCC1(CC)C(=O)CC[C@@]2(C)C1=CC[C@H]1[C@@H]3CC[C@H](O)[C@@]3(C)CC[C@@H]12
TARGET_OR_TEST_SYSTEM: LOX IMVI
CATEGORY_LABEL: inactive
//
COMPOUND: COc1cc2c(cc1OC)-c1cc3cc(OC)c(OC)cc3c(=O)n1CC2
TARGET_OR_TEST_SYSTEM: LOX IMVI
CATEGORY_LABEL: inactive
//
COMPOUND: CCN(CC)CCNc1c2ccccc2nc2cccc([N+](=O)[O-])c12
TARGET_OR_TEST_SYSTEM: LOX IMVI
CATEGORY_LABEL: active
//
COMPOUND: CCOC(=O)C1=NN(c2ccc(Cl)cc2)C2=CC(C)=NN(C)C(=S)N21
TARGET_OR_TEST_SYSTEM: LOX IMVI
CATEGORY_LABEL: inactive
//
COMPOUND: C=C1C2CCC3(CCC4C5(C)CCCC4(C=[N+](CCO)C5)C3C2)C1O (stereo not given)
TARGET_OR_TEST_SYSTEM: LOX IMVI
CATEGORY_LABEL: inactive
//
COMPOUND: NC(=O)c1nnn(-c2ccccc2)c1O
TARGET_OR_TEST_SYSTEM: LOX IMVI
CATEGORY_LABEL: inactive

-- ask Would you mind telling me which call this test gave `CC(C)(C)OC(=O)[C@@H]1CCC(=S)N1Cc1ccccc1` ?
-- reply inactive

-- ask Would you mind telling me which call this test gave `N=C(N)c1ccc(/N=N\c2c(O)ccc3c2[nH]c2ccccc23)cc1` ?
-- reply inactive

-- ask Would you mind telling me which call this test gave `CCOC(=O)CCC1(CCC(=O)OCC)CCCCCCCCC(CCC(=O)OCC)(CCC(=O)OCC)C(=O)C1=O` ?
-- reply inactive

Origin of measurements: ChEMBL document CHEMBL1201862
